System: Vero cells
Particulars: African green monkey
Assay Endpoint: CC50 (µM)
# unit: µM | format: bare number

Input: Which CC50 is listed for O=c1ccn([C@@H]2O[C@](F)(COP3(=O)OCc4ccccc4O3)[C@@H](O)[C@H]2O)c(=O)[nH]1 (some centres unmarked) ?
Output: 213

====

For each entry below, report its EC50 value.
Tested on: YFV
Run Description: microbe, parasite or virus in culture
Type: cell-based
Particulars: Yellow fever virus, Huh-7
Report only the number, with the unit µM understood.

Input: Could you share which EC50 value was measured for CC(C)OC(=O)[C@@H](N[P@](=O)(OC[C@@]1(F)O[C@@H](n2ccc(=O)[nH]c2=O)[C@H](O)[C@@H]1O)Oc1ccccc1)C(C)C [EIDD-3445] ?
Output: 18

Input: Tell me the measured EC50 of CC(C)OC(=O)[C@H](C)N[P@](=O)(OC[C@@]1(F)O[C@@H](n2ccc(=O)[nH]c2=O)[C@H](O)[C@@H]1O)Oc1ccccc1 [EIDD-3232] , please.
Output: 15

Source of measurements: patent US20260124226A1
